- TESTED_SYSTEM: human PPARγ- LBD (Homo sapiens, UniProt P37231)
- Construct: a mixture of a human PPARγ- LBD labelled with glutathione S-transferase (GST)
- Sequence (P37231 238-503 limits assumed): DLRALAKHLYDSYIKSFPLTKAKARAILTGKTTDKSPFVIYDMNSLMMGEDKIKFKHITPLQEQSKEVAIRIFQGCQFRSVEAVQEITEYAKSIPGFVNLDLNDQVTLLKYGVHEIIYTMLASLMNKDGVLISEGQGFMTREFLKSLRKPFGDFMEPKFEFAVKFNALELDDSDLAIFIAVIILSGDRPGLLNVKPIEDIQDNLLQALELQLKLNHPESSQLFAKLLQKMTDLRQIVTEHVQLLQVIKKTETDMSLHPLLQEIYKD
- PROTOCOL_TEXT: Lanthascreen TR-FRET PPARγ competitive binding assay
- CONDITION_SUMMARY: TR-FRET, 20 µM
Labelling: Raw Data - Background reported below 0.8 RLU becomes yes (1); at or above becomes no (0).

SMILES_CODE | CLASS_ASSIGNMENT
C=CCc1ccc(OCC(=O)Nc2ccccc2Cl)c(OC)c1 | no (0)
C=CCc1ccc(OCC(=O)Nc2cccc(C(F)(F)F)c2)c(OC)c1 | yes (1)
C=CCc1ccc(OCC(=O)Nc2ccccc2C)c(OC)c1 | yes (1)
C=CCc1ccc(OCC(=O)Nc2cccc(Cl)c2)c(OC)c1 | yes (1)
C=CCc1ccc(OCC(=O)Nc2ccc([N+](=O)[O-])cc2)c(OC)c1 | no (0)

* * *

Reported inhibition at 400 µM values are given for each entry in this list.
- TESTED_SYSTEM: UniProt:P01012
- PROTOCOL_TEXT: Albumin denaturation assay
- Assay type: biochemical, hen
- CONDITION_SUMMARY: 400 µM; mean ± SD (n = 3); read-out: Percentage inhibition of denaturation of albumin

COMPOUND | inhibition at 400 µM / %
C=CCc1ccc(OCC(=O)Nc2ccccc2)c(OC)c1 | 32.3
O=C(O)Cc1ccccc1Nc1c(Cl)cccc1Cl [Standard Diclofenac, Diclofenac, reference compound] | 68.5
C=CCc1ccc(OCC(=O)Nc2cccc(Cl)c2)c(OC)c1 | 56.6
C=CCc1ccc(OCC(=O)Nc2ccccc2C)c(OC)c1 | 34
C=CCc1ccc(OCC(=O)Nc2ccc([N+](=O)[O-])cc2)c(OC)c1 | 32.2
C=CCc1ccc(OCC(=O)Nc2ccccc2Cl)c(OC)c1 | 62.4
C=CCc1ccc(OCC(=O)Nc2cccc(C(F)(F)F)c2)c(OC)c1 | 49.1

* * *

- TESTED_SYSTEM: egg albumin (Gallus gallus, UniProt P01012)
- Sequence (P01012 2-386): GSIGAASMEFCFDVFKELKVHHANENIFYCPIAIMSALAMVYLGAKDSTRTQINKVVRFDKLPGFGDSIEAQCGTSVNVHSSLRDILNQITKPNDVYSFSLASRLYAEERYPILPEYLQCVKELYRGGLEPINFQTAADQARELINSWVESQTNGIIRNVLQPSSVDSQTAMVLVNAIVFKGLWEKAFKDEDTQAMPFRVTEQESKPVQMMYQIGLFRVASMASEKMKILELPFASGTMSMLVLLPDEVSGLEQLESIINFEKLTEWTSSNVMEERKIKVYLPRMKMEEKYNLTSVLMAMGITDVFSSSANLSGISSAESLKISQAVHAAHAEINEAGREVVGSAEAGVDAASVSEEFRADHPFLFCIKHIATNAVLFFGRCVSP
- PROTOCOL_TEXT: Albumin denaturation assay
- Type: biochemical, hen
- CONDITION_SUMMARY: 50 µM; mean ± SD (n = 3); read-out: Percentage inhibition of denaturation of albumin
MEASURED_PARAMETER: inhibition at 50 µM

COMPOUND | VALUE_OBSERVED
C=CCc1ccc(OCC(=O)Nc2ccccc2Cl)c(OC)c1 | 31%
C=CCc1ccc(OCC(=O)Nc2ccccc2C)c(OC)c1 | 13.8%
C=CCc1ccc(OCC(=O)Nc2ccccc2)c(OC)c1 | 14.5%
C=CCc1ccc(OCC(=O)Nc2cccc(Cl)c2)c(OC)c1 | 22.4%
C=CCc1ccc(OCC(=O)Nc2ccc([N+](=O)[O-])cc2)c(OC)c1 | 13.4%
C=CCc1ccc(OCC(=O)Nc2cccc(C(F)(F)F)c2)c(OC)c1 | 18.8%
O=C(O)Cc1ccccc1Nc1c(Cl)cccc1Cl [Standard Diclofenac, Diclofenac, reference compound] | 38.9%

* * *

- TESTED_SYSTEM: human PPARγ- LBD (Homo sapiens, UniProt P37231)
- Construct: a mixture of a human PPARγ- LBD labelled with glutathione S-transferase (GST)
- PROTOCOL_TEXT: Lanthascreen TR-FRET PPARγ competitive binding assay
- CONDITION_SUMMARY: TR-FRET, 0.0000512 µM

COMPOUND | Raw Data - Background
C=CCc1ccc(OCC(=O)Nc2ccccc2)c(OC)c1 [Compound 1a] | 1.681 RLU
C=CCc1ccc(OCC(=O)Nc2cccc(C(F)(F)F)c2)c(OC)c1 [Compound 1d] | 1.876 RLU
C=CCc1ccc(OCC(=O)Nc2ccc([N+](=O)[O-])cc2)c(OC)c1 [Compound 1b] | 1.767 RLU
C=CCc1ccc(OCC(=O)Nc2cccc(Cl)c2)c(OC)c1 [Compound 1e] | 1.839 RLU
C=CCc1ccc(OCC(=O)Nc2ccccc2C)c(OC)c1 [Compound 1c] | 1.647 RLU
C=CCc1ccc(OCC(=O)Nc2ccccc2Cl)c(OC)c1 [Compound 1f] | 2.02 RLU
